target: B-RAF G466V (Homo sapiens, UniProt P15056, G466V)
Construct: expressed in transfected cells; host or cells: T-Rex 293 cells (Invitrogen #R71007)
Sequence (P15056 whole entry G466V): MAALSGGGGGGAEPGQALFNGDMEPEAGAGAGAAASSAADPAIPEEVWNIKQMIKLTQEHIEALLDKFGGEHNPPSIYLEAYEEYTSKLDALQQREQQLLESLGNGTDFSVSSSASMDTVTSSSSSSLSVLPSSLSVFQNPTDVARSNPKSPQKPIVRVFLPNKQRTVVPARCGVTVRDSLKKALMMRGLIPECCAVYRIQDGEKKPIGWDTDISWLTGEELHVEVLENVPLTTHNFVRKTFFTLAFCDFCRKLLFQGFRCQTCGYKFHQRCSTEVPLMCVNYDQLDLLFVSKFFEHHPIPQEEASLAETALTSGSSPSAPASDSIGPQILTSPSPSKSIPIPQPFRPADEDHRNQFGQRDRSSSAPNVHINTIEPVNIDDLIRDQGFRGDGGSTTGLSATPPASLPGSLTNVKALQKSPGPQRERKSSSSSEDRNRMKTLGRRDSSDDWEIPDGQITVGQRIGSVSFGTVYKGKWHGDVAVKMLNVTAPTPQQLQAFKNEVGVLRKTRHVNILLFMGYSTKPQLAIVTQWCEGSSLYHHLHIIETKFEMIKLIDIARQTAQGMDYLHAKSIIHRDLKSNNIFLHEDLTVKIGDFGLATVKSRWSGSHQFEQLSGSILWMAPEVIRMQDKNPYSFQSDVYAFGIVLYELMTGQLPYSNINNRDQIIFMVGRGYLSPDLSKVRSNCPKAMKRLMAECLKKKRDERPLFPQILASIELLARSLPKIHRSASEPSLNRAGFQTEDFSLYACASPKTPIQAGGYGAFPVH
measurement_description: Target protein degradation, assay D: T-Rex 293 cells, HA-BRAF_G466V, 384 well format
Assay type: cell-based
condition_parameters: Assay D, T-Rex 293 HA-BRAF_G466V cells, 24 hours, Examples 83-269
Procedure: D. T-Rex 293 Cells (384 Well Format) T-Rex 293 cells were purchased from Invitrogen (#R71007), and stably transfected with a pcDNA4/TO_HA-BRAF_G466V construct, using 400 ug Zeocin for selection. […] BRAF intensity is quantified in HCS Studio software (ThermoFisher), using a custom script, exported, analyzed using KNIME, and curve curation is performed in an ELN (Scilligence). Cell toxicity is measured via comparing number of nuclei in PROTAC treated wells to DMSO controls. […]
measurement_name: DC50

// worked examples, DC50 included
1) N#Cc1c(NS(=O)(=O)N2CC[C@@H](F)C2)ccc(F)c1Oc1ccc2ncn(-c3ccc(N4CCC(CN5CCN(CC6CCN(c7ccc8c(c7)C(=O)N(C7CCC(=O)NC7=O)C8=O)CC6)CC5)CC4)nc3)c(=O)c2c1 (some centres unmarked): 1 to 10 nM
2) N#Cc1c(NS(=O)(=O)N2CC[C@@H](F)C2)ccc(F)c1Oc1ccc2ncn(-c3ccc(N4CCC(c5ccc6c(c5)CN(C5CCC(=O)NC5=O)C6=O)CC4)nc3)c(=O)c2c1 (some centres unmarked): 1 to 10 nM
3) C[C@H]1CN(CC2CCN(c3ccc4c(c3F)CN([C@H]3CCC(=O)NC3=O)C4=O)CC2)CCN1c1ccc(-n2cnc3ccc(Oc4c(F)ccc(NS(=O)(=O)N5CC[C@@H](F)C5)c4C#N)cc3c2=O)nc1: 1 to 10 nM
4) N#Cc1c(NS(=O)(=O)N2CC[C@@H](F)C2)ccc(F)c1Oc1ccc2ncn(-c3cnc(C4(N5CCN(CC6CN(c7ccc(NC8CCC(=O)NC8=O)cc7F)C6)CC5)CC4)nc3)c(=O)c2c1 (some centres unmarked): 1 to 10 nM

Now look at this entry.
Q) For `N#Cc1c(NS(=O)(=O)N2CC[C@@H](F)C2)ccc(F)c1Oc1ccc2ncn(-c3ccc(N4CCN(C(=O)C5CN(c6ccc7c(c6)CN([C@H]6CCC(=O)NC6=O)C7=O)C5)CC4)cc3)c(=O)c2c1` , what is its reported DC50?
A) 10 to 30 nM
